Test system: P388 leukemia ip, CD2F1 mice, survival T/C
experiment-description: NCI In Vivo Anticancer Drug Screen. Data for tumor model P388 Leukemia (intraperitoneal) in CD2F1 (CDF1) mice
assay-conditions: endpoint: median survival time; dose: 50.0 mg/kg/injection; schedule: Q01DX009 (ip); vehicle: saline; higher = longer survival
Toxic doses and inconclusive results are not listed.
property: T/C

Cn1ccn(C)c1=S
107 % of control

Please report T/C for every entry that follows.
1. CCN1C(=O)/C(=C/C=C/N(C)c2ccccc2)SC1=S
2. C/C1=N/N=C(N)\N=C(\C)CC1
3. C1N2CN3CN1CN(C2)C3 (tested in a mixture with another compound)

1: 112 % of control; 2: 90 % of control; 3: 107 % of control

Please report T/C for every entry that follows.
1. CC(=O)CC(=O)OC(C)(C)C#CC(C)(C)OC(=O)CC(C)=O
2. O=C1C=CC(=O)C2=C1C1CCCC1C1CCCC21 (centres undefined)
3. CCOC(=O)C(CNc1ccc(O)cc1)NC(=O)c1ccccc1 (centres undefined)
4. CCOC(=O)CS(=O)(=O)CCS(=O)(=O)CC(=O)OCC
5. Oc1ccc2c(c1)OC1(c3ccccc3)CC2N=CN1 (centres undefined)
6. C=CB(OCCC)OCCC
7. NC(N)=N/N=C/C(Cl)Cl
8. O=C(Nc1cccc(Cl)c1)Nn1cnnc1

1. 102 % of control
2. 105 % of control
3. 101 % of control
4. 95 % of control
5. 107 % of control
6. 92 % of control
7. 100 % of control
8. 101 % of control

Please report T/C for every entry that follows.
1. CCOC(=O)C(CC)CO (centres undefined)
2. NC(CS)C(=O)O (centres undefined)

1: 101 % of control; 2: 115 % of control

###

System: P388 leukemia ip, CD2F1 mice, survival T/C
experiment-description: NCI In Vivo Anticancer Drug Screen. Data for tumor model P388 Leukemia (intraperitoneal) in CD2F1 (CDF1) mice
assay-conditions: endpoint: median survival time; dose: 120.0 mg/kg/injection; schedule: Q01DX005 (ip); vehicle: saline; higher = longer survival
Toxic doses and inconclusive results are not listed.
Exercise: for every item that follows, state its recorded T/C.

Below, each entry is followed by its recorded T/C result.
CN(C)C(C#CCO)c1ccccc1 (stereo unspecified)
103 % of control
CN1CCC(=NO)CC1
89 % of control
COc1cc2c(c(Cl)c1OC)CCN(C)CC2c1ccccc1 (stereo unspecified)
98 % of control
CCOC(=N)c1ccc(C(=N)OCC)cc1
100 % of control
CCN(CC)CC(C)(C)C(=O)/C=C/c1ccc(Cl)cc1
116 % of control

Look at this compound and give its reported T/C. CCN(CC)CCNC(c1ccc(OC)cc1)C(Cl)(Cl)Cl (stereo unspecified)
94 % of control

###

System: P388 leukemia ip, CD2F1 mice, survival T/C
experiment-description: NCI In Vivo Anticancer Drug Screen. Data for tumor model P388 Leukemia (intraperitoneal) in CD2F1 (CDF1) mice
assay-conditions: endpoint: median survival time; dose: 100.0 mg/kg/injection; schedule: Q04DX003 (ip); vehicle: saline with Tween-80; higher = longer survival
Toxic doses and inconclusive results are not listed.
Exercise: for every item that follows, state its recorded T/C.

Below, each entry is followed by its recorded T/C result.
Nc1[nH]nc2nc(-c3ccccc3)cnc12
90 % of control
O=[N+]([O-])c1ccc(NCCO)c([N+](=O)[O-])c1
100 % of control
Oc1ccc2ccccc2c1-c1c(OC(c2ccccc2)c2ccccc2)ccc2ccccc12
102 % of control

Please report T/C for every entry that follows.
1. C=CCn1cnc2c(=S)nc[nH]c21
2. CN(C)c1nc(N)nc(Nc2ccc(Br)cc2)c1N=O
3. CP1(C)=NP(C)(C)=NP(C)(C)=NP(C)(C)=N1.[Cl][Pt]([Cl])([Cl])[Cl]

109 % of control
108 % of control
118 % of control

###

Exercise: for every item that follows, state its recorded T/C.
System: P388 leukemia ip, CD2F1 mice, survival T/C
experiment-description: NCI In Vivo Anticancer Drug Screen. Data for tumor model P388 Leukemia (intraperitoneal) in CD2F1 (CDF1) mice
assay-conditions: endpoint: median survival time; dose: 25.0 mg/kg/injection; schedule: Q01DX005 (ip); vehicle: Klucel (hydroxypropylcellulose) (HPC); higher = longer survival
Toxic doses and inconclusive results are not listed.

Please report T/C for every entry that follows.
1. Cn1cc(NC(=O)c2cc(NC(=O)c3cc(NC=O)cn3C)cn2C)cc1C(=O)O
2. NNC(=O)N/N=C/c1ccccc1Cl
3. C=CC(=O)OCCCN(CCCC)CCCC
4. Cc1nc2cc3c(cc2n2cccc12)oc1ccccc13
5. CC1(C)N=C(N)N=C(N)N1c1cccc(C(=O)O)c1
6. COc1ccc2c(c1)C(c1cccc3ccccc13)OC2 (configuration not stated)
7. CC1=CC(=O)C2OC(=O)CC3C=CCC1C32C (configuration not stated)

1. 100 % of control
2. 96 % of control
3. 100 % of control
4. 88 % of control
5. 117 % of control
6. 88 % of control
7. 99 % of control

###

Tested on: P388 leukemia ip, CD2F1 mice, survival T/C
experiment-description: NCI In Vivo Anticancer Drug Screen. Data for tumor model P388 Leukemia (intraperitoneal) in CD2F1 (CDF1) mice
assay-conditions: endpoint: median survival time; dose: 100.0 mg/kg/injection; schedule: Q01DX005 (ip); vehicle: Klucel (hydroxypropylcellulose) (HPC); higher = longer survival
Inconclusive results and toxic doses are left out. Square brackets hold non-standard residues; d marks the D form. Peptide text beside a SMILES is read from it. * marks the point of attachment. ξ: configuration not given here. Cbz = O=C(OCc1ccccc1)*; ξNva = CCCC(N)C(=O)O
property: T/C

Below, each entry is followed by its recorded T/C result.
CC(C)(C)OC(=O)N/N=C\c1ccnc2ccccc12
93 % of control
O=C(O)C(C1CCCCC1)C1(O)CCCCCC1 (configuration not stated)
103 % of control
CCCC(NC(=O)CNC(=O)OCc1ccccc1)C(=O)O (stereo not drawn) (Cbz-Gly-[ξNva]-OH)
98 % of control
C=C(C)/C=N/O
104 % of control

Please report T/C for every entry that follows.
1. C#CCn1c(=O)c2cc3ccccc3nc2n(CC#C)c1=O
2. Cc1ccc(S(=O)(=O)C(=S)SCc2ccccc2)cc1
3. Nc1nc(Cl)c2[nH]c(Cl)nc2n1
4. C=C(C)C(=NC(C)(C)C)N1CCCCC1
5. Cc1ccc(C(=O)C(C#N)=Nc2ccc(N(C)C)cc2)cc1
6. Cc1cc(N=Cc2c(CO)cnc(C)c2O)c(N=Cc2c(CO)cnc(C)c2O)cc1C
7. CC1=CC(Cc2ccccc2)N(C)C(C(N)=O)C1 (configuration not stated)

1: 93 % of control; 2: 105 % of control; 3: 99 % of control; 4: 102 % of control; 5: 92 % of control; 6: 96 % of control; 7: 101 % of control

Look at this compound and give its reported T/C. C=C(C)[C@H]1CCC23C[C@@H]4C(C[C@H]2C1(C)CCC(=O)O)C4(C)C3 (some centres not stated)
91 % of control

###

Exercise: for every item that follows, state its recorded T/C.
Test system: P388 leukemia ip, CD2F1 mice, survival T/C
experiment-description: NCI In Vivo Anticancer Drug Screen. Data for tumor model P388 Leukemia (intraperitoneal) in CD2F1 (CDF1) mice
assay-conditions: endpoint: median survival time; dose: 50.0 mg/kg/injection; schedule: Q01DX009 (ip); vehicle: saline with Tween-80; higher = longer survival
Procedure: The antitumor activity of compounds was measured in mice bearing transplantable tumors. Survival or tumor size were measured and the results are expressed as the measurement made in the treated group (T) divided by the measurement made in the vehicle treated control group (C). The tumor model used in this assay is P388 Leukemia (intraperitoneal) in CD2F1 (CDF1) mice
Inconclusive results and toxic doses are left out.

C=C1C2CCC3(C)C(c4ccoc4)OC(=O)CC13OC1CC(=O)C(C)(C)C(CC(=O)OC)C12C (stereo unspecified)
99 % of control
N#Cc1ccc[nH]c1=S
95 % of control
CSc1ccc(SC)c2c1C(=O)c1c(SC)ccc(SC)c1C2=O
93 % of control
Cc1oc(NC(=O)C(=O)O)c(C#N)c1C
88 % of control
O=C([S-])N1CCCCC1.O=C([S-])N1CCCCC1.[Ni+2]
90 % of control
NC(=S)N/N=C\c1nccc2ccc(N)cc12
94 % of control

Please report T/C for every entry that follows.
1. CCCCCCCCCCCCCCCC1C(N)C(=O)N(C)N1C (stereo unspecified)
2. CCOC(=O)c1ccc(NC(Cc2ccccc2)=NC(C)(C)C)cc1
3. Cc1ccc(C(C)(N=[N+]=[N-])c2ccccc2)cc1C (stereo unspecified)

1. 86 % of control
2. 98 % of control
3. 108 % of control

Please report T/C for every entry that follows.
1. Nc1cccc2cccnc12 (tested in a mixture with another compound)
2. O=C1c2cc(Cl)ccc2-c2c(NC(=O)C(Cl)Cl)cc(Cl)cc21

1. 104 % of control
2. 100 % of control
